Assay: Acute toxicity, intravenous
Settings: mouse, in vivo
Counter-ions that a name gives are not always drawn.
QUANTITY_KIND: LD50

LD50 measured on N=C(N)NCCCCC(O)CC(=O)NC(O)C(=O)NCCCCNCCCN (stereo not shown) [BMG162-aF2 hydrochloride] = > 80 mg/kg
